Each entry below lists one item and its recorded pIC50 value.
# EXPERIMENTAL_TARGET: Full length human CDC7 protein co-expressed with DBF4 (Homo sapiens (Human), UniProt O00311)
# Sequence (O00311 whole entry): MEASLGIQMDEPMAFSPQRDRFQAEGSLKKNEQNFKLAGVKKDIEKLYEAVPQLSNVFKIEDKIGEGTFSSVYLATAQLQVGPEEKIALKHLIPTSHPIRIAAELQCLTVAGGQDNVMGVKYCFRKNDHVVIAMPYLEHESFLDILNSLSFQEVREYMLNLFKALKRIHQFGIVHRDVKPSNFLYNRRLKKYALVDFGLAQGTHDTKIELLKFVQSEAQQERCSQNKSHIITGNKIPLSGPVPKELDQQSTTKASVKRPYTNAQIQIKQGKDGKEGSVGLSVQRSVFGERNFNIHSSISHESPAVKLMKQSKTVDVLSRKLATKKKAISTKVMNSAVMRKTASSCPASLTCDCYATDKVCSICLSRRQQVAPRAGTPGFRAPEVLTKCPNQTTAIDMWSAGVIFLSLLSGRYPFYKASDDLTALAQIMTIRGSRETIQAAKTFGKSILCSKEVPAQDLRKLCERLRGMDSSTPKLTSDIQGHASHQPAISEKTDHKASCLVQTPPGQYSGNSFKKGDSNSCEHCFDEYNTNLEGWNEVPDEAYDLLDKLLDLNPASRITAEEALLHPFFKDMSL
# Sequence (Q9UBU7 whole entry partner): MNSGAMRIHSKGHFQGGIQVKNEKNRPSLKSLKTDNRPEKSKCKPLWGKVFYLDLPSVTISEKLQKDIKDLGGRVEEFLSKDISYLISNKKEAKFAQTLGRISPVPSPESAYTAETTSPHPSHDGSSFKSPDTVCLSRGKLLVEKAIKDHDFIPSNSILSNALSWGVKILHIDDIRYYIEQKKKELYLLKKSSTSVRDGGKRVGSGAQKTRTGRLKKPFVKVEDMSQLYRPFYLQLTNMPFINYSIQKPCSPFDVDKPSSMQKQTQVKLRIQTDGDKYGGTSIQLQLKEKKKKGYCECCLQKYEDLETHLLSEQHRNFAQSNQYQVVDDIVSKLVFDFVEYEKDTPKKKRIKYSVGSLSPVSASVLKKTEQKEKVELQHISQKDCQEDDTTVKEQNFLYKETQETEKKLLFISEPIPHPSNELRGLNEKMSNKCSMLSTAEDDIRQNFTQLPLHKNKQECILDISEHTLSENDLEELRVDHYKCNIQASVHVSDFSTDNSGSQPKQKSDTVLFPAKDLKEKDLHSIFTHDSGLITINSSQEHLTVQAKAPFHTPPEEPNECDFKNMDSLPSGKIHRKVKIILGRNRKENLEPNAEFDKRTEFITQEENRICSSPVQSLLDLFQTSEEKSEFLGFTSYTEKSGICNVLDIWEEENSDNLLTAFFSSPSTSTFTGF
pIC50: −log10 of the molar value. Where a name gives a salt, the structure may show the parent alone.

Use the examples below as a reference point.
MOLECULE	pIC50
NCc1[nH]c(=O)c2sc(-c3ccncc3)c3c2c1CCCO3 [Example 15, hydrochloride]	8.00 to 9.00
COC[C@@H](OC)c1[nH]c(=O)c2sc(-c3cn[nH]c3)c3c2c1CCCO3 (single isomer, unassigned) [Example 39]	> 9.00

### Prompt // lookup pIC50 for C[C@@H](O)c1[nH]c(=O)c2sc(-c3cn[nH]c3)c3c2c1CCCO3 (single isomer, unassigned) [Example 33]
### Response > 9.00

### Prompt Same for CC1Cc2c(CN3CC(F)C3)[nH]c(=O)c3sc(-c4cn[nH]c4)c(c23)O1 (stereo in doubt) [Example 68]
### Response > 9.00

### Prompt Same for Cc1[nH]c(=O)c2sc(-c3cn[nH]c3)c3c2c1CCO3 [Example 3]
### Response 8.00 to 9.00

### Prompt Same for N#CCc1[nH]c(=O)c2sc(-c3cn[nH]c3)c3c2c1CCCO3 [Example 75]
### Response > 9.00

### Prompt Same for Cc1[nH]c(=O)c2sc(-c3cn[nH]c3)c3c2c1CC(C)O3 (centres unmarked) [Example 9]
### Response > 9.00

### Prompt Same for O=c1[nH]c(Cn2cccn2)c2c3c(c(-c4ccncc4)sc13)OCCC2 [Example 21]
### Response > 9.00

---

# EXPERIMENTAL_TARGET: Full length human CDC7 protein co-expressed with DBF4 (Homo sapiens (Human), UniProt O00311)
METRIC: IC50

COMPOUND	IC50
O=c1[nH]c(Cn2cccn2)c2c3c(c(-c4ccncn4)sc13)OCCC2 [Example 19]	< 1 nM
O=c1[nH]c(CN2CC(O)C2)c2c3c(c(-c4cn[nH]c4)sc13)OCCC2 [Example 78]	< 1 nM
O=c1[nH]c(Cn2ccnc2)c2c3c(c(-c4cn[nH]c4)sc13)OCCC2 [Example 22]	< 1 nM
C[C@@H](c1[nH]c(=O)c2sc(-c3cn[nH]c3)c3c2c1CCCO3)N1CCC1 (single isomer, unassigned) [Example 30]	< 1 nM
C[C@@H]1Cc2c(CN3CC[C@@H]3C)[nH]c(=O)c3sc(-c4cn[nH]c4)c(c23)O1 (single isomer, unassigned) [Example 82]	< 1 nM
O=C(c1[nH]c(=O)c2sc(-c3cn[nH]c3)c3c2c1CCCO3)N1CC(O)C1 [Example 53]	1 to 10 nM
COC[C@H](OC)c1[nH]c(=O)c2sc(-c3cn[nH]c3)c3c2c1CCCO3 (single isomer, unassigned) [Example 40]	< 1 nM

### Prompt // lookup IC50 for CC(C)(O)c1[nH]c(=O)c2sc(-c3cn[nH]c3)c3c2c1CC(F)(F)CO3 [Example 45]
### Response < 1 nM

---

# EXPERIMENTAL_TARGET: Full length human CDC7 protein co-expressed with DBF4 (Homo sapiens (Human), UniProt O00311)
METRIC: IC50

Use the examples below as a reference point.
COMPOUND	IC50
C[C@H]1Cc2c(CN3CCC3)[nH]c(=O)c3sc(-c4cn[nH]c4)c(c23)O1 (single isomer, unassigned) [Example 63]	< 1 nM
COC[C@@H](c1[nH]c(=O)c2sc(-c3cn[nH]c3)c3c2c1CCCO3)N1CCC(F)(F)C1 (single isomer, unassigned) [Example 38]	1 to 10 nM
C[C@@H](c1[nH]c(=O)c2sc(-c3cn[nH]c3)c3c2c1CCCO3)n1cccn1 (single isomer, unassigned) [Example 47]	< 1 nM

### Prompt // lookup IC50 for O=c1[nH]c(C2(O)CCCC2)c2c3c(c(-c4cn[nH]c4)sc13)OCCC2 [Example 85]
### Response < 1 nM

### Prompt Same for C[C@H](c1[nH]c(=O)c2sc(-c3cn[nH]c3)c3c2c1CCCO3)n1ccnn1 (single isomer, unassigned) [Example 49]
### Response < 1 nM

### Prompt Same for CC(=O)N(C)c1[nH]c(=O)c2sc(-c3cn[nH]c3)c3c2c1CCCO3 [Example 56]
### Response < 1 nM

---

# EXPERIMENTAL_TARGET: Full length human CDC7 protein co-expressed with DBF4 (Homo sapiens (Human))
pIC50: −log10 of the molar value.
METRIC: pIC50

Use the examples below as a reference point.
COMPOUND	pIC50
CC[C@@](C)(O)c1[nH]c(=O)c2sc(-c3cn[nH]c3)c3c2c1CCCO3 (single isomer, unassigned) [Example 58]	> 9.00
C[C@@H]1Cc2c(CN3CC(O)C3)[nH]c(=O)c3sc(-c4cn[nH]c4)c(c23)O1 (single isomer, unassigned) [Example 80]	> 9.00

As a next step, examine the compound that follows.
### Prompt // lookup pIC50 for C[C@H](c1[nH]c(=O)c2sc(-c3cn[nH]c3)c3c2c1CCCO3)n1cc(C#N)cn1 (single isomer, unassigned) [Example 27]
### Response > 9.00

---

Assay read-out pIC50; system under study: Full length human CDC7 protein co-expressed with DBF4 (Homo sapiens (Human)).
pIC50: −log10 of the molar value.

Use the examples below as a reference point.
COMPOUND	OBSERVED
Cc1[nH]c(=O)c2sc(-c3ccncc3)c3c2c1C[C@@H](C)O3 (single isomer, unassigned) [Example 7]	> 9.00
O=C(c1[nH]c(=O)c2sc(-c3cn[nH]c3)c3c2c1CCCO3)N1CCCC1 [Example 51]	8.00 to 9.00
Cc1n[nH]cc1-c1sc2c(=O)[nH]c(C)c3c2c1OCCC3 [Example 6]	8.00 to 9.00
O=C1CCCN1Cc1[nH]c(=O)c2sc(-c3cn[nH]c3)c3c2c1CCCO3 [Example 41]	> 9.00
COC[C@H](c1[nH]c(=O)c2sc(-c3cn[nH]c3)c3c2c1CCCO3)N1CCC(F)(F)C1 (single isomer, unassigned) [Example 37]	8.00 to 9.00
COc1ccc(CNCc2[nH]c(=O)c3sc(-c4ccncc4)c4c3c2CCCO4)cc1 [Example 16]	≤ 8.00

### Prompt I'm curious: which pIC50 was measured for COC(=O)Cc1[nH]c(=O)c2sc(-c3cn[nH]c3)c3c2c1CCCO3 [Example 76] tested on Full length human CDC7 protein co-expressed with DBF4 (Homo sapiens (Human))?
### Response > 9.00

### Prompt Same for C[C@@H]1Cc2c(C(C)(C)O)[nH]c(=O)c3sc(-c4cn[nH]c4)c(c23)O1 (single isomer, unassigned) [Example 62]
### Response > 9.00

### Prompt Same for Cc1[nH]c(=O)c2sc(-c3ccncc3)c3c2c1CCCO3 [Example 1]
### Response > 9.00

### Prompt Same for O=c1[nH]c(CN2CCC2)c2c3c(c(-c4cn[nH]c4)sc13)OCC(F)(F)C2 [Example 44]
### Response > 9.00

### Prompt Same for O=C(c1[nH]c(=O)c2sc(-c3cn[nH]c3)c3c2c1CCCO3)N1CCOCC1 [Example 52]
### Response 8.00 to 9.00

### Prompt Same for COC[C@@H](c1[nH]c(=O)c2sc(-c3cn[nH]c3)c3c2c1CCCO3)n1cccn1 (single isomer, unassigned) [Example 36]
### Response > 9.00

### Prompt Same for O=c1[nH]c(CN2CCCCC2)c2c3c(c(-c4cn[nH]c4)sc13)OCCC2 [Example 23]
### Response > 9.00

---

# EXPERIMENTAL_TARGET: Full length human CDC7 protein co-expressed with DBF4 (Homo sapiens (Human), UniProt O00311)
METRIC: IC50

COMPOUND	IC50
Cc1[nH]c(=O)c2sc(-c3cn[nH]c3)c3c2c1CC(F)(F)CO3	< 1 nM

### Prompt // lookup IC50 for Cc1n[nH]cc1-c1sc2c(=O)[nH]c(C)c3c2c1OCC3
### Response < 1 nM

### Prompt Same for C[C@H](O)c1[nH]c(=O)c2sc(-c3cn[nH]c3)c3c2c1CCCO3 (single isomer, unassigned)
### Response < 1 nM

### Prompt Same for COC[C@H](c1[nH]c(=O)c2sc(-c3cn[nH]c3)c3c2c1CCCO3)n1cccn1 (single isomer, unassigned)
### Response < 1 nM

### Prompt Same for Cc1[nH]c(=O)c2sc(-c3cn[nH]c3)c3c2c1CCCO3
### Response < 1 nM

### Prompt Same for CC(C)(C)OC(=O)NCc1[nH]c(=O)c2sc(-c3ccncc3)c3c2c1CCCO3
### Response 1 to 10 nM

### Prompt Same for NCc1[nH]c(=O)c2sc(-c3cn[nH]c3)c3c2c1CCCO3
### Response 1 to 10 nM

### Prompt Same for CC[C@](C)(O)c1[nH]c(=O)c2sc(-c3ccncc3)c3c2c1CCCO3 (single isomer, unassigned)
### Response < 1 nM

### Prompt Same for O=c1[nH]c(CN2CC[C@H](O)C2)c2c3c(c(-c4ccncc4)sc13)OCCC2
### Response 1 to 10 nM
